System: SW-620 colon
Experiment: NCI-60 one-dose screen, 48 h
Conditions: 10 µM unless noted
About 83,000 compounds went through this panel and 20% of them were active in at least one assay; those are over-represented in the sample as a whole. Active and inactive are the calls of the source. How the source made its calls: active means growth percent below 10; inactive means the rest.
I would appreciate it if you answered using one of these outcomes: 1 (active), 0 (inactive)

> print(dat)
                                   molecule  qualitative.label
1  COc1cc(NC2CCC(=O)N2c2ccc(Cl)cc2Cl)cc(OC)c1OC (stereo not given)                  0
2  O=S1(=O)OC(c2cc(Cl)c(O)c(Br)c2)(c2cc(Cl)c(O)c(Br)c2)c2ccccc21                  0
3  Cc1ccc(C(=O)Nc2ccc(CN3CCN(C)CC3)c(C(F)(F)F)c2)cc1C#Cc1cnc2cccnn12                  1
4  CC(C)Nc1cc(-c2c[nH]c(C(=O)N[C@H](CO)c3cccc(Cl)c3)c2)c(Cl)cn1                  0

# input Just curious, what result did COc1ccc(OC)c(NC2=C(SCCc3ccccc3)C(=O)c3ccccc3C2=O)c1 get here?
# output 0

# input In this assay, the call recorded for Cc1cc2c(F)c(Oc3ncnn4cc(OC[C@@H](C)OC(=O)[C@H](C)N)c(C)c34)ccc2[nH]1 was what?
# output 0

# input Please let me know the test result on file for O=C(NO)c1ccc(Cn2c(=O)n(-c3ccccc3F)c(=O)c3ccccc32)cc1 .
# output 1

# input What outcome does the record of this test show for C=C1C[C@H](O)[C@H](Br)C(C)(C)[C@@]12CCC(C)=C(Cl)C2 ?
# output 0

# input Look up the recorded call for Cc1nc(NC(=O)N2CCC[C@H]2C(N)=O)sc1-c1ccnc(C(C)(C)C(F)(F)F)c1 in this test.
# output 0

# input Returns: the outcome recorded for Cc1ccc(-[n+]2c3cc(N)c(C)cc3nc3cc(C)c(Nc4ccccc4)cc32)cc1 in this assay.
# output 1

# input How was Cn1ccnc1C(=O)/C=C/c1ccc(CC(=O)Nc2ccc(C(F)(F)F)cc2)cc1 classified in this test?
# output 1

# input So what was the verdict on COc1ccc(C2CC(=O)c3c(O)c(OC)c(OC)c(OC)c3O2)cc1O (stereo not given) in this test?
# output 0

# input Returns: the outcome recorded for CN(N)c1nc2sc3c(c2c(=O)[nH]1)CCCC3 in this assay.
# output 0

# input Dear all, I need the recorded test outcome for Cn1cnc(-c2cc3nccc(Oc4ccc(NC(=S)NC(=O)Cc5ccccc5)cc4F)c3s2)c1 , thank you.
# output 0

# input Hi, sorry to bother you, what did the test record for Cc1cn(-c2cc(NC(=O)c3ccc(C)c(Nc4nccc(-c5cccnc5)n4)c3)cc(C(F)(F)F)c2)cn1 ?
# output 0

# input Per the records of this test, what outcome belongs to COc1cccc(NC(=O)Nc2ccc(Nc3ncnc4sc5c(c34)CCN(C(=O)CCl)C5)cc2)c1 ?
# output 0

# input Given Cc1nc(N)sc1-c1ccnc(Nc2ccc(N3CCOCC3)cc2)n1 , state the outcome it received in this test.
# output 0

# input Which outcome did this test record for the molecule Cc1cc(C(=O)NOCCO)c(Nc2ccc(I)cc2F)n(C)c1=O ?
# output 0

# input Lab log entry: CSc1nc2ncnc(SC)c2[nH]1 — outcome as called in the assay?
# output 0

# input Which outcome did this test record for the molecule CN(C)CCOC(=O)Nc1nc2ccc(Sc3ccccc3)cc2[nH]1 ?
# output 0
